Target Entity: hERG channels (Homo sapiens, UniProt Q12809)
Sequence (Q12809 whole entry): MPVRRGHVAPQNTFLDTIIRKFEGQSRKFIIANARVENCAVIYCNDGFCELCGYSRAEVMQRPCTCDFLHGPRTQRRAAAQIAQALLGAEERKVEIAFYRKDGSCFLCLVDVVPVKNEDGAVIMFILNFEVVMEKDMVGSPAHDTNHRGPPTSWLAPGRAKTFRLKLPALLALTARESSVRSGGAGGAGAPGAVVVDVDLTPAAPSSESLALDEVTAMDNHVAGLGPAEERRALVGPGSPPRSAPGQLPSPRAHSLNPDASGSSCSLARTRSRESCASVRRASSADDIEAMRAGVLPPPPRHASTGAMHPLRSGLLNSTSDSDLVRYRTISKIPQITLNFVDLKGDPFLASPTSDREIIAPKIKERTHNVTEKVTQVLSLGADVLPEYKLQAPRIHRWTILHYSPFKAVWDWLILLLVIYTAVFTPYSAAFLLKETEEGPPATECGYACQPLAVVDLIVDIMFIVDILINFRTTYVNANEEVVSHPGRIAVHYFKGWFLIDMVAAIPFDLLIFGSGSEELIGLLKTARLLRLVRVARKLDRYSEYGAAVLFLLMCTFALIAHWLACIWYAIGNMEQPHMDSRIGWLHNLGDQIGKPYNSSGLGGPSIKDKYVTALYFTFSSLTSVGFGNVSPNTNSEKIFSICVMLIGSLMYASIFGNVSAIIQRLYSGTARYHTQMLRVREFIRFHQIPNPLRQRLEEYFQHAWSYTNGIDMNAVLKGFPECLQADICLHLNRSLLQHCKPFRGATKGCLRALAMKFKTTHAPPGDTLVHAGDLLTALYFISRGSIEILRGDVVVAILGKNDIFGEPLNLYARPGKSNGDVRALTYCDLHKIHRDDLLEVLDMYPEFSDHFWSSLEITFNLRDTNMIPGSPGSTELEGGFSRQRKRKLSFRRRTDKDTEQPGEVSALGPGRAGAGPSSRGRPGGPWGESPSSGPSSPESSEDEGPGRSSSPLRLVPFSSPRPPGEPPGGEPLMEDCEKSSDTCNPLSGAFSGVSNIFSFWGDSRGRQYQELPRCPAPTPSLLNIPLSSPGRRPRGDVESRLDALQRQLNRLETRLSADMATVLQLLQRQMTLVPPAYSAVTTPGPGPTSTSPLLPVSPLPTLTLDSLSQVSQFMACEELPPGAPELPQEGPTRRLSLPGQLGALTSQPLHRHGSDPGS
Assay Info: hERG automated patch-clamp electrophysiology
pIC50: −log10 of the molar value.
# maps each entry to its pIC50

{"Compound": "NC(=O)c1ccc(OCCNC[C@H](O)COc2ccc3c(c2)OC[C@@H](COCC2CC2)O3)cc1 [NDD-713]", "Test Result": "< 5.00"}

Proceed to the following item.
Q: Which value of pIC50 has been reported for O=C1NCc2cc(OCCNC[C@H](O)COc3ccc4c(c3)OC[C@@H](COCC3CC3)O4)ccc21 [NDD-825] in the records?
A: < 5.00

----------
Assay Info: Seven-day oral dose range rat toxicity study
Format: in vivo
Cond: male, Crl:CD, plasma, oral 20, 90 or 300 mg/kg, read-out: tmax (toxicokinetics)
Recorded Endpoint: Tmax

Q: Which value of Tmax has been reported for `O=C1NCc2cc(OCCNC[C@H](O)COc3ccc4c(c3)OC[C@@H](COCC3CC3)O4)ccc21` in the records?
A: 2 to 8 h
